Data credit: patent US9440978B2

# System: rat TRPV1 (Rattus norvegicus, UniProt O35433)
# Construct: expressed in transfected cells; host or cells: HEK293
# Sequence (O35433 whole entry): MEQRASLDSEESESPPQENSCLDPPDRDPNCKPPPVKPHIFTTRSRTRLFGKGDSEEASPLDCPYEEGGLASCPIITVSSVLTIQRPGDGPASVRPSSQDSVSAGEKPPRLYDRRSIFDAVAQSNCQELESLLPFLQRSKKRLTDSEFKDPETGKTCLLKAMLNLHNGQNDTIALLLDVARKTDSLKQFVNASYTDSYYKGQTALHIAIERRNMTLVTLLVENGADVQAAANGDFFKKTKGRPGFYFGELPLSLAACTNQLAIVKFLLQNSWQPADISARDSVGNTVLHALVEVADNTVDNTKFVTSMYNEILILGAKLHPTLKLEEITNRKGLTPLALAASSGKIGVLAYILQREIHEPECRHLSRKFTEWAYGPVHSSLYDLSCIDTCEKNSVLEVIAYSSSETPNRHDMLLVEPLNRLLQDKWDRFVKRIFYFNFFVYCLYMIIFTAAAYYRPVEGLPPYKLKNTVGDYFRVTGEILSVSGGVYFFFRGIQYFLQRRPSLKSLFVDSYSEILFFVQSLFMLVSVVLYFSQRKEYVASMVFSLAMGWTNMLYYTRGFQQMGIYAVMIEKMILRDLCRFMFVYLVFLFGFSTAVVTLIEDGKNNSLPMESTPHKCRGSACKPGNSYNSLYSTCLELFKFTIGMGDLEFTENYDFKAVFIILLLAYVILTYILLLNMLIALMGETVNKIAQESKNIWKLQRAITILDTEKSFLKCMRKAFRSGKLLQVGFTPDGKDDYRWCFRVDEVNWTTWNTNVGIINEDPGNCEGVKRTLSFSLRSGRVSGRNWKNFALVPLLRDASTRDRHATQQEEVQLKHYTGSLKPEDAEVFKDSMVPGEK
# Assay Summary: Block of capsaicin-induced Ca2+ influx, rat assay (rTRPV1/HEK293, FLIPR)
# Type: cell-based
# Experimental Conditions: HEK293 cells transfected with rat TRPV1; capsaicin challenge; mean; > value = solubility limit in assay medium; read-out: Rat IC50
Where a name gives a salt, the structure may show the parent alone.
Measured Property: pIC50
// pIC50: -log10(molar conc.)

> print(dat)
                                   compound  measured.number
1  CCN1CCCC1CNc1nc(Nc2ccc(C(F)(F)F)cc2)c2nc(Cc3c(Cl)cccc3Cl)sc2n1 (centres unmarked)             5.98
2  FC(F)(F)c1ccccc1Cc1nc2c(Nc3ccc(Br)cc3)ncnc2s1             7.80
3  FC(F)(F)c1ccc(Nc2nc(NCc3cccnc3)nc3sc(Cc4c(Cl)cccc4Cl)nc23)cc1 [Example 85, trifluoroacetic acid salt]             6.95
4  FC(F)(F)c1cnc(Nc2ncnc3sc(Cc4c(Cl)cccc4Cl)nc23)cn1             6.64
5  Cc1cccc(C)c1Cc1nc2c(Nc3ccc(C(F)(F)F)cc3)ncnc2s1             7.09
6  COc1nc(Nc2ccc(C(F)(F)F)cc2)c2nc(Cc3c(Cl)cccc3Cl)sc2n1             7.47
7  FC(F)(F)c1ccc(Nc2ncnc3sc(Cc4ccc(Cl)cc4)nc23)cc1             7.38
8  Fc1ccc(Nc2ncnc3sc(Cc4c(Cl)cccc4Cl)nc23)cc1             6.72

Prompt: Given the entry CC(C)CN(CC(C)C)c1nc(Nc2ccc(C(F)(F)F)cc2)c2nc(Cc3c(Cl)cccc3Cl)sc2n1 , report its measured pIC50.
Completion: 5.39

Prompt: And FC(F)(F)c1ccc(Nc2nc(NCCN3CCCC3)nc3sc(Cc4c(Cl)cccc4Cl)nc23)cc1 [Example 82, trifluoroacetic acid salt] ?
Completion: 6.02

Prompt: And Cc1ccccc1Cc1nc2c(Nc3ccc(C(F)(F)F)cc3)ncnc2s1 ?
Completion: 6.84

Prompt: And Cc1ccccc1Cc1nc2c(Nc3ccc(S(C)(=O)=O)cc3)ncnc2s1 ?
Completion: 6.61

Prompt: And Cc1ccc(Nc2ncnc3sc(Cc4c(Cl)cccc4Cl)nc23)cc1 ?
Completion: 7.28

Prompt: And CC(C)(C)c1ccc(Nc2ncnc3sc(Cc4c(Cl)cccc4Cl)nc23)cc1 ?
Completion: 7.96

Prompt: And Cc1cccc(C)c1Cc1nc2c(Nc3ccc(S(C)(=O)=O)cc3)ncnc2s1 ?
Completion: 6.60

Prompt: And FC(F)(F)c1ccc(Nc2ncnc3sc(Cc4cccc(Cl)c4)nc23)cn1 ?
Completion: 6.93

Prompt: And FC(F)(F)c1ccc(Nc2ncnc3oc(Cc4c(Cl)cccc4Cl)nc23)cc1 ?
Completion: 7.24

----------
# System: rat TRPV1 (Rattus norvegicus)
# Construct: expressed in transfected cells; host or cells: HEK293
# Assay Summary: Block of capsaicin-induced Ca2+ influx, rat assay (rTRPV1/HEK293, FLIPR)
# Assay type: cell-based
# Experimental Conditions: HEK293 cells transfected with rat TRPV1; capsaicin challenge; mean; > value = solubility limit in assay medium; read-out: Rat IC50
pIC50: −log10 of the molar value.
Is pIC50 at least 7? Then 1.0. If not, 0.0.

Prompt: Entry CS(=O)(=O)c1ccc(Nc2ncnc3sc(Cc4ccccc4Cl)nc23)cc1 : is its pIC50 no less than 7?
Completion: 1.0

----------
# System: rat TRPV1 (Rattus norvegicus, UniProt O35433)
# Construct: expressed in transfected cells; host or cells: HEK293
# Assay Summary: Block of capsaicin-induced Ca2+ influx, rat assay (rTRPV1/HEK293, FLIPR)
# Format: cell-based
Measured Property: pIC50
// pIC50: -log10(molar conc.)

Prompt: Given the entry CC(C)[Si](Sc1ccccc1Cc1nc2c(Nc3ccc(C(F)(F)F)cc3)ncnc2s1)(C(C)C)C(C)C [Example 104] , report its measured pIC50.
Completion: 7.16

----------
# System: rat TRPV1 (Rattus norvegicus, UniProt O35433)
# Construct: expressed in transfected cells; host or cells: HEK293
# Assay Summary: Block of capsaicin-induced Ca2+ influx, rat assay (rTRPV1/HEK293, FLIPR)
# Assay type: cell-based
# Experimental Conditions: HEK293 cells transfected with rat TRPV1; capsaicin challenge; mean; > value = solubility limit in assay medium; read-out: Rat IC50
Entries and their IC50 values follow.
Please give a number only; it is taken to be in nM.

> print(dat)
                                 mol.smiles                                    system  measured.property  measured.number
1  FC(F)(F)c1ccc(Nc2ncnc3sc(Cc4c(Cl)cccc4Cl)nc23)nc1  rat TRPV1 (Rattus norvegicus, UniProt O35433)               IC50              246
2  FC(F)(F)c1ccccc1Cc1nc2c(Nc3ccccc3)ncnc2s1  rat TRPV1 (Rattus norvegicus, UniProt O35433)               IC50              410

Please look at the following compound next.
Prompt: Given the entry FC(F)(F)c1ccc(Nc2ncnc3sc(Cc4ccccc4C(F)(F)F)nc23)nc1 , report its measured IC50.
Completion: 119

----------
# System: human TRPV1 (Homo sapiens)
# Assay Summary: Block of capsaicin-induced Ca2+ influx, human assay (hTRPV1/HEK293, FLIPR)
# Experimental Conditions: HEK293 cells transfected with human TRPV1; 150 nM capsaicin challenge; mean; > value = solubility limit in assay medium
Counter-ions that a name gives are not always drawn.
IC50 strictly under 300 nM means label 1; at 300 nM or over means label 0.

Some solved cases for reference:
> print(dat)
                                   compound                      system  class.name
1  FC(F)(F)c1cnc(Nc2ncnc3sc(Cc4c(Cl)cccc4Cl)nc23)cn1  human TRPV1 (Homo sapiens)     label 1
2  FC(F)(F)c1ccc(Nc2nc(NCC3CC3)nc3sc(Cc4c(Cl)cccc4Cl)nc23)cc1  human TRPV1 (Homo sapiens)     label 1
3  Cc1ccccc1Cc1nc2c(Nc3ccc(C(F)(F)F)nc3)ncnc2s1  human TRPV1 (Homo sapiens)     label 1

Prompt: I'd appreciate it if you could check whether FC(F)(F)c1ccc(Nc2nc(NCC3CCNCC3)nc3sc(Cc4c(Cl)cccc4Cl)nc23)cc1 [Example 92, hydrochloride salt] has IC50 smaller than 300 nM.
Completion: label 0

Prompt: And FC(F)(F)c1ccc(Nc2ncnc3sc(Cc4ccccc4Cl)nc23)cc1 ?
Completion: label 1

Prompt: And CC(C)CNc1nc(Nc2ccc(C(F)(F)F)cc2)c2nc(Cc3c(Cl)cccc3Cl)sc2n1 ?
Completion: label 1

----------
# System: human TRPV1 (Homo sapiens, UniProt Q8NER1)
# Sequence (Q8NER1 whole entry): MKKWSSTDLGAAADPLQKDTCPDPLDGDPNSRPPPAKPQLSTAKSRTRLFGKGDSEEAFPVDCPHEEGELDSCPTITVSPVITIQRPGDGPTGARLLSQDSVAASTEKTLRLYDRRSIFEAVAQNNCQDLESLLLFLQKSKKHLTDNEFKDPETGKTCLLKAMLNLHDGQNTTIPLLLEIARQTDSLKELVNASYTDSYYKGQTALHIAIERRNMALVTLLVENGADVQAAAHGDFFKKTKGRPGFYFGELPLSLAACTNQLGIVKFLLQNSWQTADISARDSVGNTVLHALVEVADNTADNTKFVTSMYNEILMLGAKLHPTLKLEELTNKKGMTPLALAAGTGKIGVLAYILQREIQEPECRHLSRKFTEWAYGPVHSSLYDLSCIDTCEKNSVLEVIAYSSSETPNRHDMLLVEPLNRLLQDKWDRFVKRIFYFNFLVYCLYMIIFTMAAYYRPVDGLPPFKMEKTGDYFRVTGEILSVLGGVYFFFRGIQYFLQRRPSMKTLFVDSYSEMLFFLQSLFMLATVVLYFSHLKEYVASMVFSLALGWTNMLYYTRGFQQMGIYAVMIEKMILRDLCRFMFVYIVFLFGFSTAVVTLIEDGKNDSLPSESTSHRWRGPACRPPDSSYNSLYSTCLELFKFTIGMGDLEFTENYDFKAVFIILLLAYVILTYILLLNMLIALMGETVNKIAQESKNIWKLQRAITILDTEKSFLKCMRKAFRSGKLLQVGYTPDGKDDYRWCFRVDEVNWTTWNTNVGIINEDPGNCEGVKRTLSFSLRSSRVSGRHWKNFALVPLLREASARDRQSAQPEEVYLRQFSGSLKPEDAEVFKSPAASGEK
# Assay Summary: Block of capsaicin-induced Ca2+ influx, human assay (hTRPV1/HEK293, FLIPR)
# Experimental Conditions: HEK293 cells transfected with human TRPV1; 150 nM capsaicin challenge; mean; > value = solubility limit in assay medium
Structures can show the parent of a compound that is named as a salt.
IC50 strictly under 400 nM means Satisfied; at 400 nM or over means Not satisfied.

Some solved cases for reference:
> print(dat)
                                   molecule  class.name
1  O=S(=O)(c1ccc(Nc2ncnc3sc(Cc4c(Cl)cccc4Cl)nc23)cc1)N1CCOCC1   Satisfied
2  Fc1ccc(Nc2ncnc3sc(Cc4c(Cl)cccc4Cl)nc23)cc1   Satisfied
3  O=S(=O)(c1ccc(Nc2ncnc3sc(Cc4c(Cl)cccc4Cl)nc23)cc1)C(F)(F)F   Satisfied
4  Cc1nc(Nc2ccc(C(F)(F)F)cc2)c2nc(Cc3c(Cl)cccc3Cl)sc2n1   Satisfied
5  FC(F)(F)c1ccccc1Cc1nc2c(Nc3ccc(Br)cc3)ncnc2s1   Satisfied

Prompt: I'd appreciate it if you could check whether CN1CCN(S(=O)(=O)c2ccc(Nc3ncnc4sc(Cc5c(Cl)cccc5Cl)nc34)cc2)CC1 has IC50 smaller than 400 nM.
Completion: Not satisfied

Prompt: And FC(F)(F)c1ccc(Nc2nc(NCc3ccncc3)nc3sc(Cc4c(Cl)cccc4Cl)nc23)cc1 [Example 86, trifluoroacetic acid salt] ?
Completion: Not satisfied

Prompt: And FC(F)(F)c1ccc(Nc2ncnc3sc(Cc4c(Cl)cccc4Cl)nc23)cc1Cl ?
Completion: Satisfied

Prompt: And CC(C)(C)c1ccc(Nc2ncnc3sc(Cc4c(Cl)cccc4Cl)nc23)cc1 ?
Completion: Satisfied

Prompt: And FC(F)(F)c1cccc(Nc2ncnc3sc(Cc4c(Cl)cccc4Cl)nc23)c1 ?
Completion: Not satisfied

Prompt: And Clc1cccc(Cl)c1Cc1nc2c(Nc3ccccc3)ncnc2s1 ?
Completion: Satisfied

Prompt: And FC(F)(F)c1ccc(Nc2ncnc3sc(Cc4cccc(Cl)c4)nc23)cn1 ?
Completion: Satisfied

Prompt: And FC(F)(F)c1ccc(Nc2nc(N3CCN(C4CCCC4)CC3)nc3sc(Cc4c(Cl)cccc4Cl)nc23)cc1 [Example 76, trifluoroacetic acid salt] ?
Completion: Satisfied

Prompt: And CS(=O)(=O)c1ccc(Nc2ncnc3sc(Cc4c(Cl)cccc4Cl)nc23)cc1F ?
Completion: Satisfied

Prompt: And FC(F)(F)c1ccc(Nc2ncnc3sc(Cc4ccccc4C(F)(F)F)nc23)nc1 ?
Completion: Satisfied

Prompt: And Cc1nc(Nc2ccc(C(F)(F)F)cn2)c2nc(Cc3c(Cl)cccc3Cl)sc2n1 ?
Completion: Not satisfied

Prompt: And O=S(=O)(c1ccc(Nc2ncnc3sc(Cc4ccccc4C(F)(F)F)nc23)cc1)N1CCOCC1 ?
Completion: Satisfied

Prompt: And N#Cc1ccccc1Cc1nc2c(Nc3ccc(C(F)(F)F)cc3)ncnc2s1 ?
Completion: Satisfied

Prompt: And CC1CCCN1c1nc(Nc2ccc(C(F)(F)F)cc2)c2nc(Cc3c(Cl)cccc3Cl)sc2n1 (stereo not drawn) ?
Completion: Not satisfied

Prompt: And FC(F)(F)c1ccc(Nc2nc(NCc3cccnc3)nc3sc(Cc4c(Cl)cccc4Cl)nc23)cc1 [Example 85, trifluoroacetic acid salt] ?
Completion: Not satisfied

Prompt: And FC(F)(F)c1ccc(Nc2ncnc3sc(Cc4c(Cl)cccc4Cl)nc23)cn1 ?
Completion: Satisfied

Prompt: And CS(=O)(=O)c1ccc(Nc2ncnc3sc(Cc4ccccc4)nc23)cc1 ?
Completion: Not satisfied

Prompt: And CC(C)CN1CCN(c2nc(Nc3ccc(C(F)(F)F)cc3)c3nc(Cc4c(Cl)cccc4Cl)sc3n2)CC1 [Example 83, trifluoroacetic acid salt] ?
Completion: Satisfied

Prompt: And FC(F)(F)c1ccc(Nc2nc(NCC3CCCNC3)nc3sc(Cc4c(Cl)cccc4Cl)nc23)cc1 (stereo not drawn) [Example 91, hydrochloride salt] ?
Completion: Not satisfied

Prompt: And Clc1ccc(Nc2ncnc3sc(Cc4c(Cl)cccc4Cl)nc23)cc1 ?
Completion: Satisfied
